Overview of recorded IC50 for various compounds
- SYSTEM: Potassium voltage-gated channel subfamily KQT member 1 (Cavia porcellus, UniProt O70344)
- Sequence (O70344 whole entry): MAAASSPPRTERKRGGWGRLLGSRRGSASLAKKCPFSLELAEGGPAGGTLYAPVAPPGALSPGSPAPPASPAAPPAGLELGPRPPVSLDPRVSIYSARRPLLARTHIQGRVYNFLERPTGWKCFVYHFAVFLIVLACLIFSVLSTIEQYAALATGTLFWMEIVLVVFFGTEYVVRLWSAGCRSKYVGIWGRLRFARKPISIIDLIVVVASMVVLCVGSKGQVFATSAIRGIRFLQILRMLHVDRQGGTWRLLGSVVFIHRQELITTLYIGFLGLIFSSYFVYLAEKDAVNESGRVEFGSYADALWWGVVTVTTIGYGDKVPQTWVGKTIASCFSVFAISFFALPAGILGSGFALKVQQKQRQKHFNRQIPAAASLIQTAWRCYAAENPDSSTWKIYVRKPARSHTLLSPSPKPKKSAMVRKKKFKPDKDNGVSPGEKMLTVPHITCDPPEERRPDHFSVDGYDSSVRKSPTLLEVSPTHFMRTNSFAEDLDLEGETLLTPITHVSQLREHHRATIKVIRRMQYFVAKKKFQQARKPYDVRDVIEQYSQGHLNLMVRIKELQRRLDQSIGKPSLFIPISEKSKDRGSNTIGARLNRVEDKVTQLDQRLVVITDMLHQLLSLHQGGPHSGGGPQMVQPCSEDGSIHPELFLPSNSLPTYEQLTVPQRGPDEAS
- Type: cell-based, Oocyte
- Description: Inhibition of guinea pig Iks potassium channel expressed in Xenopus oocytes

>  <COMPOUND>
CCS(=O)(=O)N(C)C1c2cc(C#N)ccc2OC(C)(C)[C@@H]1O (single isomer, unassigned)

>  <IC50 / µM>
5

$$$$
>  <COMPOUND>
CCS(=O)(=O)N(C)C1c2cc(C#N)ccc2OC(C)(C)[C@H]1O (single isomer, unassigned)

>  <IC50 / µM>
39

$$$$
